Origin of the recorded values: the supplement of paper PMC9112550

Tested on: Escherichia coli TOP10;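 also: peptides expressed intracellularly from a pBAD plasmid library in pooled LB shake-flask culture, induced with 0.3% L-arabinose, DNA abundance read by NGS, three biological replicates, DESeq2 with apeglm shrinkage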
Assay: shrunken log2 fold change of peptide-encoding DNA abundance (4.5 h post-induction vs induction); higher = less antimicrobial activity (less host growth inhibition)
Settings: time post-induction: 4.5 h; library: site-saturation at positions 5, 18, 19, 20
Parameter: shrunken log2 fold change
# output: bare number, no unit

Given item RRIRSRPPRLPRPRPRPCGIPRP , the value recorded as its shrunken log2 fold change is -0.0619

Sure, the documented shrunken log2 fold change for RRIRRRPPRLPRPRPRPYCHPRP is -0.792

The sequence identified as RRIRMRPPRLPRPRPRPTAHPRP registered its shrunken log2 fold change at 0.767

Form field shrunken log2 fold change, entry RRIRARPPRLPRPRPRPRGNPRP : 0.494

RRIRYRPPRLPRPRPRPLCWPRP yielded shrunken log2 fold change of -0.264

For RRIRLRPPRLPRPRPRPYNMPRP the sequence record lists shrunken log2 fold change as -0.859

Data point: RRIRVRPPRLPRPRPRPDHTPRP ; shrunken log2 fold change = -0.428

Consider RRIRIRPPRLPRPRPRPSYHPRP . Its measured shrunken log2 fold change is -0.933
